test: Cytotoxicity against MDCK2 cells expressing human C-terminal GFP-tagged ABCG2 assessed as reduction in cell viability after 72 hrs by MTT assay; assay type: ADME, cell-based, Canis lupus familiaris, MDCK-II; conditions: dog
quantity.kind: GI50 at 72 h (µM)
Give bare numbers, in µM.

Previously resolved entries follow.
COc1ccc(/C=C/C(=O)c2cccc(Nc3ncnc4cc(OC)c(OC)cc34)c2)cc1; 12.7
COc1ccc(/C=C/C(=O)c2cccc(Nc3ncnc4cc(OC)c(OC)cc34)c2)cc1OC; 11.5
COc1ccc2c3c([nH]c2c1)[C@H](CC(C)C)N1C(=O)[C@H](CCC(=O)OC(C)(C)C)NC(=O)[C@@H]1C3; 11.1
COc1ccc(/C=C/C(=O)c2cccc(Nc3nc(-c4ccc(OC)c(OC)c4)nc4ccccc34)c2)cc1; 13.1
COc1cccc(/C=C/C(=O)c2cccc(Nc3nc(-c4ccc(OC)c(OC)c4)nc4ccccc34)c2)c1; 84.7

List GI50 at 72 h for every entry below, keeping the order given.
1. COc1ccc(/C=C/C(=O)c2ccc(Nc3nc(-c4ccccc4)nc4ccccc34)cc2)cc1OC
2. COc1ccc(/C=C/C(=O)c2ccc(Nc3nc(-c4ccc(OC)c(OC)c4)nc4ccccc34)cc2)cc1OC
3. COc1ccc(/C=C/C(=O)c2cccc(Nc3nc(-c4ccc(OC)c(OC)c4)nc4ccccc34)c2)cc1OC
4. COc1ccc(/C=C/C(=O)c2cccc(Nc3ncnc4ccccc34)c2)cc1OC

output:
[4.8, 92.9, 10.9, 5.14]

* * *

Would you mind telling me the reported IC50 of each entry?
target: ATP-dependent translocase ABCB1 (Homo sapiens); test: Inhibition of ABCB1 in human A2780/ADR cells incubated for 30 mins measured up to 3600 secs with time intervals of 60 secs by calcein accumulation assay; format: cell-based
Sequence (P08183 whole entry): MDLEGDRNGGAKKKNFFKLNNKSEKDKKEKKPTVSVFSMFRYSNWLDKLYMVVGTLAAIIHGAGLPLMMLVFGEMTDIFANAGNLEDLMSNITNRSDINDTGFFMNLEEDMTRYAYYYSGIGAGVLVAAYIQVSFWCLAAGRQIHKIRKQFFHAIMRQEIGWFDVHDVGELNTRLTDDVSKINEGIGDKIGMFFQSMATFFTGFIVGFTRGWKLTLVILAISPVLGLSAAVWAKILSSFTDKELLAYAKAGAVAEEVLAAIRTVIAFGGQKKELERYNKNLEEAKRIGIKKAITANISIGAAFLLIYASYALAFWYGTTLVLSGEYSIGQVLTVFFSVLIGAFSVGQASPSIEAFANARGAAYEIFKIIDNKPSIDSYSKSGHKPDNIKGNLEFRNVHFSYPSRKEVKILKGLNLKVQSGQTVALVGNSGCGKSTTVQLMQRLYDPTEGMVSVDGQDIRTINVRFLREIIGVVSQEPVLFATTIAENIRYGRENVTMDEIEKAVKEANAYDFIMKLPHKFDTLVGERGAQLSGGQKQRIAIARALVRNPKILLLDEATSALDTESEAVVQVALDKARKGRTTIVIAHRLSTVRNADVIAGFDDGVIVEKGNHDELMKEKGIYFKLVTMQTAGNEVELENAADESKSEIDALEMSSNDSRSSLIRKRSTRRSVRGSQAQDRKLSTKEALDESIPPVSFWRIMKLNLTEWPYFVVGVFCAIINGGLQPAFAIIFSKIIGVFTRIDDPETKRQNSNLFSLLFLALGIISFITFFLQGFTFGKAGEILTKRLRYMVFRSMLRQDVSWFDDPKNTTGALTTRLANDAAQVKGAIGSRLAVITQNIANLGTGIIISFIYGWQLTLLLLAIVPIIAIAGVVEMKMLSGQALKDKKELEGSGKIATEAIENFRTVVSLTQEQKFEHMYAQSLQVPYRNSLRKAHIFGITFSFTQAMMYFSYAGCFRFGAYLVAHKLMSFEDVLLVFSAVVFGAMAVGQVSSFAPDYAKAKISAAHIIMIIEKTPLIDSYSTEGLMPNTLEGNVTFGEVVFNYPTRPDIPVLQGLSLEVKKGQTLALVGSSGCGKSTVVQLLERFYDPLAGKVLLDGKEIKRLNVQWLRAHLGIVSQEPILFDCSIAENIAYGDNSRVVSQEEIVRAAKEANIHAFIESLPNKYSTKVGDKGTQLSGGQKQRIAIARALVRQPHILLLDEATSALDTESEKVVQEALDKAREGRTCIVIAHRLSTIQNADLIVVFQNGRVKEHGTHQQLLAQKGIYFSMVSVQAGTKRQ
One number for each entry, in µM.

These solved cases illustrate the format of a correct answer.
COc1cccc(/C=C/C(=O)c2ccc(Nc3ncnc4ccccc34)cc2)c1; 5.57
COc1ccc(/C=C/C(=O)c2cccc(Nc3nc(-c4ccc(OC)c(OC)c4)nc4ccccc34)c2)cc1; 1.29
COc1ccc(/C=C/C(=O)c2cccc(Nc3ncnc4ccccc34)c2)cc1OC; 0.42
COc1ccc(/C=C/C(=O)c2ccc(Nc3nc(-c4ccc(OC)c(OC)c4)nc4ccccc34)cc2)cc1OC; 14.9
COc1ccc(/C=C/C(=O)c2ccc(Nc3nc(-c4ccccc4)nc4ccccc34)cc2)cc1OC; 18.8

Dear colleague, could you please provide IC50 for the compounds listed below?
1. COc1cccc(/C=C/C(=O)c2ccc(Nc3ncnc4cc(OC)c(OC)cc34)cc2)c1
2. COc1ccc(/C=C/C(=O)c2cccc(Nc3ncnc4cc(OC)c(OC)cc34)c2)cc1
3. COc1ccc(/C=C/C(=O)c2ccc(Nc3ncnc4ccccc34)cc2)cc1OC
4. COc1ccc(/C=C/C(=O)c2cccc(Nc3nc(-c4ccc(OC)c(OC)c4)nc4ccccc34)c2)cc1OC
5. COc1ccc(/C=C/C(=O)c2cccc(Nc3ncnc4ccccc34)c2)cc1
6. COc1cccc(/C=C/C(=O)c2cccc(Nc3nc(-c4ccc(OC)c(OC)c4)nc4ccccc34)c2)c1
7. COc1ccc(/C=C/C(=O)c2cccc(Nc3ncnc4cc(OC)c(OC)cc34)c2)cc1OC
8. COc1cccc(/C=C/C(=O)c2ccc(Nc3nc(-c4ccc(OC)c(OC)c4)nc4ccccc34)cc2)c1

output:
1: 7.55; 2: 4.15; 3: 2.34; 4: 0.48; 5: 7.08; 6: 8.24; 7: 0.86; 8: 14.6

input: Which IC50 is listed for COc1cccc(/C=C/C(=O)c2ccc(Nc3nc(-c4ccccc4)nc4ccccc34)cc2)c1 ?
output: 32.1

* * *

assay: Cytotoxicity against MDCK2 cells assessed as reduction in cell viability after 72 hrs by MTT assay; format: cell-based, Canis lupus familiaris, MDCK-II; conditions: dog
Output schema: class label derived from GI50 at 72 h. Mapping: low: < 6 µM; middle: ≥ 6 µM and < 20 µM; high: ≥ 20 µM

Sample answers from the record:
COc1ccc(/C=C/C(=O)c2cccc(Nc3nc(-c4ccc(OC)c(OC)c4)nc4ccccc34)c2)cc1; middle
COc1cccc(/C=C/C(=O)c2cccc(Nc3nc(-c4ccc(OC)c(OC)c4)nc4ccccc34)c2)c1; high
COc1ccc(/C=C/C(=O)c2ccc(Nc3nc(-c4ccc(OC)c(OC)c4)nc4ccccc34)cc2)cc1OC; high

input: Which band does COc1ccc(/C=C/C(=O)c2ccc(Nc3nc(-c4ccccc4)nc4ccccc34)cc2)cc1OC fall in?
output: low

input: Determine which band this compound sits in: COc1ccc(/C=C/C(=O)c2cccc(Nc3ncnc4cc(OC)c(OC)cc34)c2)cc1
output: middle

input: The entry to classify is COc1ccc2c3c([nH]c2c1)[C@H](CC(C)C)N1C(=O)[C@H](CCC(=O)OC(C)(C)C)NC(=O)[C@@H]1C3 ; which class holds it?
output: middle

input: Form: Item = COc1ccc(/C=C/C(=O)c2cccc(Nc3ncnc4ccccc34)c2)cc1OC ; Class = ?
output: low

input: Entry COc1ccc(/C=C/C(=O)c2cccc(Nc3nc(-c4ccc(OC)c(OC)c4)nc4ccccc34)c2)cc1OC belongs to which category?
output: middle
